Assay: In vivo pharmacokinetic study in rats
Parameters: species or system Sprague Dawley rats
Conditions: Sprague Dawley, rat, plasma, iv, 20 mg/kg
PARAMETER_MEASURED: AUC (ng·h/mL)
Give just the number in ng·h/mL; leave the unit off.

Task: What measured AUC goes with COc1ccc2c(c1)[nH]c1c(C)nccc12 ?
Result: 12900

---

Assay: In vivo pharmacokinetic study in rats
Design: species or system Sprague Dawley rats
Conditions: Sprague Dawley, rat, plasma, po, 60 mg/kg
PARAMETER_MEASURED: Cmax (ng/mL)
State the answer as a number, implicitly in ng/mL.

Task: # Cmax lookup, item COc1ccc2c(c1)[nH]c1c(C)nccc12 [HM, Harmine]
Result: 3110

---

Assay: MTT cytotoxicity assay
Assay type: cell-based, human
Details: human, Caco-2 cells
PARAMETER_MEASURED: viability at 24 h, 200 μg/mL

Task: Find the recorded viability at 24 h, 200 μg/mL belonging to COc1ccc2c(c1)[nH]c1c(C)nccc12 and report it.
Result: > 90%

---

Experiment: Bidirectional transport across Caco-2 cell monolayers
Type: in vitro ADME
Conditions: human
PARAMETER_MEASURED: Papp at 2 h

Task: I have this compound here, COc1ccc2c(c1)[nH]c1c(C)nccc12 , and I need its recorded Papp at 2 h.
Result: > 1 ×10⁻⁶ cm/s
